experiment: Aqueous solubility in buffer versus acetonitrile/water (1/1), LC-UV; assay type: physicochemical; details: kinetic from dmso stock, buffer pH 2.2, 24 h shaking, 2.5% DMSO, ">" if more than 90% dissolved
endpoint: solubility at 24 h (µg/mL)

Sample records with solubility at 24 h:
smiles data: Cc1cc(OCCC(C)(C)O)cc(C)c1-c1cc(CNc2ccc([C@H]3C[C@@H]3C(=O)O)cn2)c(F)cc1F
unit annotation: µg/mL
solubility at 24 h: 83
//
smiles data: O=C(O)[C@H]1C[C@@H]1c1ccc(NCc2ccc(C(F)(F)F)c(-c3ccc(OCC4CC4)cc3)c2)nc1
unit annotation: µg/mL
solubility at 24 h: 30

[a] Cc1cccc(C)c1-c1cc(CNc2ccc([C@H]3C[C@@H]3C(=O)O)cn2)c(F)cc1F
[b] Cc1cc(O[C@H]2CCOC2)cc(C)c1-c1ccc(F)c(CNc2ccc([C@H]3C[C@@H]3C(=O)O)cn2)c1
Consider a and b . Which of these has its solubility at 24 h at a higher number? Answer with the label corresponding to your selection. b
(b: 99 µg/mL, a: 42 µg/mL)

----------
biological target: human GPR40 receptor (Homo sapiens, UniProt O14842); experiment: IP1 accumulation measurements using the IPOne assay system; conditions: 1321N1 cells stably expressing human GPR40 receptor, stimulation 1 h at 37° C.
Sequence (O14842 whole entry): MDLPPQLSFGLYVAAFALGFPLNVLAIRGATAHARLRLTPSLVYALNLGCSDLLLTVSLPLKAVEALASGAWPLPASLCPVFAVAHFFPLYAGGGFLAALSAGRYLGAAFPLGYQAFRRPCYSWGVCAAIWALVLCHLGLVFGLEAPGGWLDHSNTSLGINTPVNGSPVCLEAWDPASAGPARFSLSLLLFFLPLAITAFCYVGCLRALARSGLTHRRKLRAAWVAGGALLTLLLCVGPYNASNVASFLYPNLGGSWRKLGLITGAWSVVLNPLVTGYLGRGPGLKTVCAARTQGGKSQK
pEC50: −log10 of the molar value.
endpoint: pEC50

Sample records with pEC50:
molecule: N#CC1(c2ccccc2-c2ccc(F)c(CNc3ccc([C@H]4C[C@@H]4C(=O)O)cn3)c2)CC1
endpoint: pEC50
reported value: 5.71
--
molecule: Cc1cc(OCc2ccccc2)cc(C)c1-c1ccc(F)c(CNc2ccc([C@H]3C[C@@H]3C(=O)O)cn2)c1
endpoint: pEC50
reported value: 6.97
--
molecule: Cc1cc(OCC2CCOC2)cc(C)c1-c1cc(CNc2ccc([C@H]3C[C@@H]3C(=O)O)cn2)c(F)cc1F (stereo partly shown)
endpoint: pEC50
reported value: 8.30

[I] Cc1cc(OCC2(O)CCSCC2)cc(C)c1-c1ccc(F)c(CNc2ccc([C@H]3C[C@@H]3C(=O)O)cn2)c1
[II] CNC(=O)c1cc(C)c(-c2cc(CNc3ccc([C@H]4C[C@@H]4C(=O)O)cn3)c(F)cc2F)c(C)c1
[III] O=C(O)[C@H]1C[C@@H]1c1ccc(NCc2cc(-c3ccccc3C(F)(F)F)ccc2F)nc1
[IV] COc1cc(OC)c(-c2cc(CNc3ccc([C@H]4C[C@@H]4C(=O)O)cn3)c(F)cc2F)c(OC)c1
Put the entries in order of pEC50, starting with the largest number. Provide the ranking by listing each label in its place in the requested order. I, III, II, IV

----------
target: human GPR40 receptor (Homo sapiens); experiment: IP1 accumulation measurements using the IPOne assay system; details: 1321N1 cells stably expressing human GPR40 receptor, stimulation 1 h at 37° C.
endpoint: EC50 (nM)

[A] Cc1cc(-c2nnn(C)n2)cc(C)c1-c1ccc(F)c(CNc2ccc([C@H]3C[C@@H]3C(=O)O)cn2)c1
[B] Cc1cc(OCC2CCOCC2)cc(C)c1-c1cc(CNc2ccc([C@H]3C[C@@H]3C(=O)O)cn2)c(F)cc1F
Consider A and B . Which of these has its EC50 at a higher number? Answer with the label corresponding to your selection. B

[I] Cc1cc(C(=O)N(C)C)cc(C)c1-c1ccc(F)c(CNc2ccc([C@H]3C[C@@H]3C(=O)O)cn2)c1
[II] COc1cc(OC)c(F)c(-c2ccc(F)c(CNc3ccc([C@H]4C[C@@H]4C(=O)O)cn3)c2)c1F
Consider I and II . Which of these has its EC50 at a higher number? Answer with the label corresponding to your selection. II
(II: 1340 nM, I: 550 nM)
